# System: MDR1, BCRP
# Measurement description: MDCKII-MDR1-BCRP efflux assay
# Format: in vitro ADME
# Measurement context: dog, pH 7.4, 5 μM compound, HBSS pH 7.4, read-out: MDCK-Mdr1-BCRP efflux ratio
Assay metric: efflux ratio at 120 min, 5 μM
API doc: respond with a numeric literal and nothing else, no unit.

Past entries and their recorded results:
{"columns": ["Molecule", "Recorded value"],
 "data": [
  ["Cc1cc2ncnn2cc1Nc1ncc2c(C)nn(C3CCN(C)CC3)c2n1 [Example 19]", 13.1],
  ["CO[C@H]1CC[C@H](c2nn(C)c3cnc(Nc4cn5ncnc5cc4C)nc32)CC1 [Example 7]", 2.3],
  ["Cc1cc2ncnn2cc1Nc1ncc2c(C)nn(C3CC4(C3)CC(F)(F)C4)c2n1 [Example 41]", 1.5]
]}

Q: Note efflux ratio at 120 min, 5 μM for the molecule shown: Cc1cc2ncnn2cc1Nc1ncc2c(C)nn(C3CCOCC3C)c2n1 (single isomer, unassigned) [Example 112]
A: 3.5

Q: Note efflux ratio at 120 min, 5 μM for the molecule shown: Cc1cc2ncnn2cc1Nc1ncc2c(n1)c(C1CCCCC1)nn2C [Example 5]
A: 0.8

Q: Note efflux ratio at 120 min, 5 μM for the molecule shown: Cc1cc2ncnn2cc1Nc1ncc2c(C)nn([C@H]3CC[C@H](O)CC3)c2n1 [Example 31]
A: 31.2

Q: Note efflux ratio at 120 min, 5 μM for the molecule shown: Cc1cc2ncnn2cc1Nc1ncc2c(n1)c(C(C)C)nn2C [Example 4]
A: 0.9

Q: Note efflux ratio at 120 min, 5 μM for the molecule shown: Cc1cc2ncnn2cc1Nc1ncc2c(C)nn(CC3CCCO3)c2n1 (single isomer, unassigned) [Example 50]
A: 2.7
